target: T1, Human OLR1 (human, UniProt P78380 1-273); assay: flow, Jurkat, 100 nM Ab
T1 construct: also called hOLR1

BINDER	MFI normalized to WT
KW9.3.3 (antibody, V domains shown) VH: EVQLVESGGGLVQPGGSLRLSCAASGFTFSSYAMSWVRQAPGKGLEWVSAISGSGGRTYYADSVKGRFTISRDNSKNTLYLQMNSLRAEDTAMYYCARGPGYMYLYGDSFFEYWGQGTLVTVSS VL: DIQMAQSPSSLSASVGDRVTITCRASQGISSYLNWYQQKPGKAPKLLIYAASSLQSGVPSRFSGSGYGTDFTLTISSLQPEDFATYYCQQSYSTPLTFGQGTKVEIK	0.9
